Target: T1, human Trop-2 expressed on cell surface (human, UniProt P09758 27-323)
T1 sequence (looked up): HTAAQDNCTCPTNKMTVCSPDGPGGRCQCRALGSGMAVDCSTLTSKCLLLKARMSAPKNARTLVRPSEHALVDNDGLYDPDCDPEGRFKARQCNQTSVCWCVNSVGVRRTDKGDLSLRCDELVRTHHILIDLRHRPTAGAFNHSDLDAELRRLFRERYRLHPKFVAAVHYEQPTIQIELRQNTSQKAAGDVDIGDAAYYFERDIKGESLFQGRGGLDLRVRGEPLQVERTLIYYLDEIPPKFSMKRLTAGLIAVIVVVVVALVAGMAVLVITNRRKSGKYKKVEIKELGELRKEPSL
Assay: cell-based or functional assay
Measured Metric: Internalization %, MCF-7, 0.5 µg/ml, 2 h (%)

{"Binder": "72F12 (antibody, V domains shown, Rabbit-derived clone; LEM construct: VH + rabbit IgG CH1 + human IgG1 CH2-CH3) VH: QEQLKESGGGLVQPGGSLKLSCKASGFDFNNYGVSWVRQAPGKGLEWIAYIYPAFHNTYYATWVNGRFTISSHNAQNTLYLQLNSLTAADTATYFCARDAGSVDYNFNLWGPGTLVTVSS VL: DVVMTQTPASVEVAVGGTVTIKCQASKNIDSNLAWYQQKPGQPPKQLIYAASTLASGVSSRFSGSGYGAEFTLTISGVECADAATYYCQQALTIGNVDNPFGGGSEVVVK", "Readout Unit": "%", "Numeric Result": 39}
{"Binder": "10A9-2 (antibody, V domains shown) VH: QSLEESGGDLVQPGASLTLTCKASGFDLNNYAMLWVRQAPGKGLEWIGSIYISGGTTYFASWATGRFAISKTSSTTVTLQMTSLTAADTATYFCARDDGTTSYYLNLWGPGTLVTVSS VL: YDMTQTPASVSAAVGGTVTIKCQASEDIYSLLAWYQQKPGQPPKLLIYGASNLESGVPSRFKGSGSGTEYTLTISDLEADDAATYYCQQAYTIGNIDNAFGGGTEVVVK", "Readout Unit": "%", "Numeric Result": 47}
{"Binder": "9D7-2 (antibody, V domains shown) VH: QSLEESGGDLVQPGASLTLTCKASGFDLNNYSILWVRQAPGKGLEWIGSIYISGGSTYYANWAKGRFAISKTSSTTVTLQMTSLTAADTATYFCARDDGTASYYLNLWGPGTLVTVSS VL: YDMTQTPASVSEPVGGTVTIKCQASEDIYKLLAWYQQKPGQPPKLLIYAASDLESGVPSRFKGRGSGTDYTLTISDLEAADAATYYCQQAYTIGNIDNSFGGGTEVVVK", "Readout Unit": "%", "Numeric Result": 42}
{"Binder": "5D4-2 (antibody, V domains shown) VH: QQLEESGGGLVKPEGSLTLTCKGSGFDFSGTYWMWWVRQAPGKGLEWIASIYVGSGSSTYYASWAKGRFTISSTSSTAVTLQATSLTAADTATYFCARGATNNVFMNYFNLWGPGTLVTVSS VL: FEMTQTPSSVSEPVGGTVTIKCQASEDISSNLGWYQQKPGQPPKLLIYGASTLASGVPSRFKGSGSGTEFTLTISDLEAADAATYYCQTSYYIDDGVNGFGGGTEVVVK", "Readout Unit": "%", "Numeric Result": 43}
{"Binder": "9F7 (antibody, V domains shown, Rabbit-derived clone; LEM construct: VH + rabbit IgG CH1 + human IgG1 CH2-CH3) VH: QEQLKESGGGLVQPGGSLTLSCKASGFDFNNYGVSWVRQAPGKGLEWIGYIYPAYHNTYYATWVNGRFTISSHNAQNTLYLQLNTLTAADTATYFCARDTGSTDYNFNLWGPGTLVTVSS VL: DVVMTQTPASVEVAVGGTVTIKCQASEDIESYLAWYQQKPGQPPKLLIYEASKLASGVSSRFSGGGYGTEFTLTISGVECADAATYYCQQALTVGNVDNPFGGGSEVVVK", "Readout Unit": "%", "Numeric Result": 44}
